System: MOLM14(D835Y) cells
Assay type: cell-based
Conditions: MOLM14(D835Y) cells, 10 × 10; combination with Prednisolone
Labelling field: enter 1 if recorded Excess HSA Score is less than 200. Enter -1 if it equals or exceeds that cut-off.

{"compound": "COc1ccn2c(-c3ccnc(N[C@H]4CNC[C@@H]4F)n3)cnc2c1", "group": 1}
{"compound": "CC(O)(c1cn2c(-c3ccnc(N[C@H]4CNCC[C@@H]4F)n3)cnc2cn1)C(F)(F)F (single isomer, unassigned)", "group": -1}
{"compound": "COc1cc2ncc(-c3ccnc(N[C@H]4CNCC[C@@H]4F)n3)n2cc1C(C)(C)O", "group": 1}
{"compound": "COc1cc2ncc(-c3cncc(N[C@H]4CNCC[C@@H]4F)n3)n2nc1C1CC1", "group": 1}
{"compound": "COc1ccn2c(-c3cncc(N[C@@H]4CCCNC4)n3)cnc2c1", "group": 1}
{"compound": "COc1cc2ncc(-c3ccnc(N[C@@H]4CCCNC4)n3)n2cc1C(C)(C)O", "group": -1}
{"compound": "F[C@H]1CCNC[C@@H]1Nc1cncc(-c2cnc3cc(OC4CC4)ccn23)n1", "group": -1}
{"compound": "FC(F)COc1ccn2c(-c3ccnc(N[C@H]4CNCC[C@@H]4F)n3)cnc2c1", "group": 1}

The measured values listed here are drawn from patent US20250154144A1.
